Assay system: PDZD7 PDZ1ext (81-192) (Mus musculus, UniProt E9Q9W7)
Construct: PDZ1 (81-167), PDZ1ext (81-192); GST (followed by TEV site) (N, cleaved yes); made in house; host or cells: E. coli BL21 DE3
Sequence (E9Q9W7 81-192): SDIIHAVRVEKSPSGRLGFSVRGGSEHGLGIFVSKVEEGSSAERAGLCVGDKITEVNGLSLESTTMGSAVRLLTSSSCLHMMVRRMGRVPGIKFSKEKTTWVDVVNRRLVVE
Experiment summary: NMR titration of PDZ1ext with ADGRV1 ligands
Format: binding, murine
Stated conditions: NMR titration (1H-15N HSQC CSP), Tris HCl pH 7.5 (50 mM), 25°C; SD of Kd over at least ten shifting peaks; read-out: Kd
Description: All experiments were recorded at 25°C on a Bruker 800 MHz spectrometer equipped with a triple resonance ^1H{^13C/^15N} cryoprobe. […] The 2D ^1H-^15N HSQC spectra used to compare PDZ1, PDZ1ext, PDZ2 and PDZ2ext were recorded in Tris HCl pH 7.5 (50 mM). The 2D ^1H-^15N HSQC spectra used to compare PDZ1ext, PDZ2ext and P1P2 were recorded in Phosphate Buffer pH 6.5 (50 mM). […] Averaged Chemical Shifts Perturbations (CSP) were calculated as: Δδavg = ((Δδ(^1H))^2+(Δδ(^15N)*0.159)^2)^½. […]
Where no end group is shown, it is not given here.

Construct sequence	Assay system	Kd
VELRRIPIADTHL [ADGRV1pbm]	PDZD7 PDZ1ext (81-192) (Mus musculus, UniProt E9Q9W7)	47 µM
